- Protocol Summary: soluble on expression in E. coli; label from the status in PepcDB or PDB records
Measured Endpoint: soluble on expression in E. coli

residue_string=WIRTGDGVRLRTVVWPEGAAGTVLIFSGRTEYAEKYGPAAEALRRRGFASATLDWRGQGLSDRSLRDPLVGHVDDFASYQQDVTAFVAALRAQGLPEPFHLLAHSMGGCIGLRALHEGLPVRAACFSAPMWGIRVHAALRIVAAALGALARATGLGHRYVPGTGTRSYVATAAFDTNVLTRDPEMFAWMQEQLVQAPELGLAGPSLDWLRAAFEETARLKRLPAPDLPALCIVGSAEKVVDLEEIQRRMEGWGRGELQIVPGAEHEVMMDRPEVRDAFFDAA observed_result="not soluble"
residue_string=MGSDKIHHHHHHMKNTEIRKNIFPVGFYDDIHPDFSVNFQMNRCYTMTNDDVMLKEMREISPSIHNYEEFIEKFLELYNKALNEGHKLRAAYYLRTAEFYMTADHPQKQNYRKQFISLMQEYFNISDEQPYKVPYENGFLPAYRFTSEAPKGTIVMFGGFDSYVEEMFKMALFLKEAGYDVVFFDGPGQGSALEDYKIPMTHEWEKPVKSILDYFELDDVTLLGISLGGYLTVRAAAFEKRVHRVIADDILSNFYEVVLNTLPSQLKEKVNSLMSDGNEQEVNILFKDLMKKSLMVEWAINQGMHITGSKTPYEFLNKILLYNTSKISEKLEQDVLLMAAQEDHYIPLNQFFDQSKSLINVRSLTTRMFTRKETAQNHCQSGNLGLAFEVIANWIEQIQK observed_result="not soluble"
